Tested on: HCT-15 colon
ASSAY_REMARKS: NCI tumour cell line growth inhibition, 48 h; in the data active means GI50 below about 0.43 µM; inactive means the rest
Outcome field: choose from 1 (yes) = active, 0 (no) = inactive

Answered examples (6):
MOLECULE	TARGET	CLASS
Cn1cc(C2=C(c3cn(CCCO)c4ccccc34)C(=O)NC2=O)c2ccccc21	HCT-15 colon	0 (no)
O[N+]1=CC=CCC1=S.On1ccccc1=S.[Zn]	HCT-15 colon	0 (no)
CCOC(=O)C1=C(C)N(c2ccc(OC)cc2)C2(O)C=CC(=O)C3C(=O)N(c4ccccc4)C(=O)C132 (stereo unspecified)	HCT-15 colon	0 (no)
CC(=O)OC[C@]1(C)C=C2C(=O)[C@](C)(O)C3(CC3)C(C)=C2[C@H]1OC(=O)N(C)CCN(C)C(=O)OC(C)(C)C	HCT-15 colon	0 (no)
CN1CCN(CCn2c3c4ccccc4ccc3c3oc(=O)c4ccccc4c32)CC1	HCT-15 colon	0 (no)
O=C(Nc1cccc(-c2cccc(F)c2)c1)C1CCN(Cc2cccc3cccnc23)CC1	HCT-15 colon	0 (no)

Query: Test call, this molecule: Cc1cc(Nc2cccc(F)c2)nc(NCc2ccccc2)n1
Response: 0 (no)

Query: Test call, this molecule: CN([O-])c1nc(N(C)[O-])nc(N2CCOCC2)n1.CN([O-])c1nc(N(C)[OH2+])nc(N2CCOCC2)n1.[Fe+3]
Response: 0 (no)

Query: Test call, this molecule: CCN(CC)CCOc1ccc(/C=C2\CC3C4CC=C5C[C@@H](N6CCCC6)CC[C@]5(C)C4CC[C@]3(C)[C@H]2OC(C)=O)cc1OC (stereo partly specified)
Response: 0 (no)

Query: Test call, this molecule: Cc1c2cnccc2c(C)c2c1c1cc(CO)ccc1n2C
Response: 1 (yes)

Query: Test call, this molecule: Cc1nc2cc(-n3c(-c4ccc(F)cc4)nc4ccccc4c3=O)ccc2n1Cc1ccccc1
Response: 0 (no)
